Test system: A498 renal
Assay: NCI-60 one-dose screen, 48 h
Settings: 10 µM unless noted
Compounds without any hit were thinned out: in the full panel of roughly 83,000, 20% have a hit. Calls of active or inactive are those of the source. Rule for the calls: active = growth percent below 10; inactive = the rest.
Outcome codes: active, inactive

INSERT INTO measurements (compound, qualitative_label) VALUES
  ('O=[N+]([O-])c1ccc(O)c2ncccc12', 'inactive'),
  ('c1ccc(-c2nc(N3CCOCC3)c3c4c(sc3n2)CCCCCC4)nc1', 'active'),
  ('COc1cc(-c2nc(SC(C)C)nc(Nc3cccc(C)c3)c2C#N)cc(OC)c1OC', 'inactive'),
  ('COc1cc(C2C3=C(COC3=O)N(CCO)c3cc4c(cc32)OCO4)cc(OC)c1O (stereo not drawn)', 'active'),
  ('C=C(C)COC(=O)c1ccccc1C(=O)OCC1(C)CO1 (stereo not drawn)', 'inactive'),
  ('COc1ccccc1/C=C/C(=O)/C=C/c1ccccc1O', 'inactive'),
  ('O=c1ccc2ccccc2o1', 'inactive'),
  ('CCN(CC)c1ccc(/C=C(\C#N)c2cc3ccccc3[nH]2)cc1', 'inactive'),
  ('CC[Si](CC)(CC)OC1[C@@H](O[Si](CC)(CC)CC)[C@@H](CNC(=O)NC)O[C@H]1n1cnc2c(NC(=O)Nc3ccccc3)ncnc21 (stereo partly drawn)', 'inactive'),
  ('Cn1c2ccccc2c2nn(C(=O)c3ccccc3)c(=O)nc21', 'inactive'),
  ('O=C1C=CC(=O)N1CCCCCCCCCCN1C(=O)C=CC1=O', 'inactive'),
  ('COc1cc2cc(Oc3ccc(NC(=O)Nc4cccc(C(F)(F)F)c4)cc3)c(C)nc2cc1OCCN1CCCCC1', 'inactive'),
  ('Cn1c(=O)c(S(=O)(=O)c2ccccc2)cc2ccc3c(cnn3-c3ccc(Cl)cc3)c21', 'inactive'),
  ('COc1ccc(C2SC(C)C(=O)N2CCc2cccs2)cc1OC (stereo not drawn)', 'inactive'),
  ('CSc1ccc(OC(C)=O)cc1C', 'inactive'),
  ('COc1ccc(-n2c(SCc3cc(OC)c(OC)c(OC)c3)nc3ccc(C)cc3c2=O)c(OC)c1', 'active'),
  ('CC1CCCCN1S(=O)(=O)c1ccc(CN=C=S)cc1 (stereo not drawn)', 'inactive'),
  ('O=C1CC2c3cc(-c4cc5ccccc5o4)ccc3CCN2C(=O)N1c1ccccc1 (stereo not drawn)', 'inactive'),
  ('Clc1nc(-c2ccccn2)nc2sc3c(c12)CCCCCC3', 'inactive'),
  ('CCN1CCN(c2nc3ccccc3c3c(=O)c4cc(F)ccc4sc23)CC1', 'inactive'),
  ('COc1cccc(OC(=O)c2ccccc2)c1OC(=O)c1ccccc1', 'inactive'),
  ('CCOC(=O)C(CC(c1ccccc1)N1CCCCC1)[N+](=O)[O-] (stereo not drawn)', 'inactive'),
  ('O=S(=O)(OCCO)c1ccccc1', 'inactive');
